Data provenance is patent US20060252800A1.

- Test system: Leishmania (L. major)
- Assay explanation: Leishmania protozoa proliferation inhibition assay
- Format: cell-based
- Condition notes: Table 3; sample concentration 33 mg/ml; 48 hours at 27° C.; absorbance 450 nm minus 630 nm
// reported OD level (number of viable Leishmania protozoa) per item
Write the value as a bare number.

## Task Return reported OD level (number of viable Leishmania protozoa); argument: CCn1c(=Cc2cccc[n+]2C)sc(=C2Sc3ccc(Cl)cc3N2C)c1=O.Cc1ccc(S(=O)(=O)[O-])cc1 [IV (f)]
## Result 0.038

Further cases:
## Task Look up OD level (number of viable Leishmania protozoa) for this compound: CCn1c(=Cc2sc3ccccc3[n+]2C)sc(=C2C=Cc3ccccc3N2C)c1=O.Cc1ccc(S(=O)(=O)[O-])cc1 [IV (d)]
## Result 0.035

## Task Check CN1C(=c2sc(=Cc3cccc[n+]3C)n(CC3CCCO3)c2=O)Sc2ccc3ccccc3c21.Cc1ccc(S(=O)(=O)[O-])cc1 (stereo not shown) [IV (l)] too.
## Result 0.029

## Task Also CCn1c(=Cc2sc3ccccc3[n+]2C)sc(=C2Sc3ccc4ccccc4c3N2C)c1=O.Cc1ccc(S(=O)(=O)[O-])cc1 [IV (m)] , if possible.
## Result 0.027

## Task Same read-out for C=CCn1c(=Cc2cccc[n+]2C)sc(=C2Sc3ccc(Cl)cc3N2C)c1=O.Cc1ccc(S(=O)(=O)[O-])cc1 [IV (h)] ?
## Result 0.034

## Task How about this compound: C[C@@H]1[C@H](O)[C@@H](C)/C=C/C=C/C=C/C=C/C=C/C=C/C=C/[C@H](O[C@@H]2O[C@H](C)[C@@H](O)[C@H](N)[C@@H]2O)C[C@@H]2O[C@](O)(C[C@@H](O)C[C@@H](O)[C@H](O)CC[C@@H](O)C[C@@H](O)CC(=O)O[C@H]1C)C[C@H](O)[C@H]2C(=O)O [Amphotericin B, reference compound]
## Result 0.030

## Task Input CN1C(=c2sc(=Cc3sc4ccccc4[n+]3C)n(CC3CCCO3)c2=O)Sc2ccccc21.Cc1ccc(S(=O)(=O)[O-])cc1 (stereo not shown) [IV (k)]
## Result 0.029
